Measured TGI values are reported for all entries that follow.
- Test system: TK-10 renal
- measurementDescription: NCI tumour cell line growth inhibition, 48 h

*Q* Could you share which TGI value was measured for `c1ccc(-c2nnn(CCN3CCCCC3)n2)cc1` ?
*A* > 100 µM

*Q* I'd like to know its TGI. The molecule in question is COc1ccc(-c2cc(C(O)C3CCCCN3)c3ccccc3n2)cc1 (stereo not drawn)
*A* 23.7 µM

*Q* I am curious: what TGI value has been reported for CN1C(=O)C(O)CC1c1cccc(C(F)(F)F)c1 (stereo not drawn) ?
*A* > 100 µM

*Q* Given CCC1CNC(=O)CC1CC(=O)OC (stereo not drawn) , state its recorded TGI.
*A* > 100 µM

*Q* What measured TGI goes with `Cc1nc(-c2cc3cc(Cl)ccc3oc2=O)cc2c1c(=O)oc1ccc(Cl)cc12` ?
*A* > 100 µM

*Q* For the molecule NC1=NCC(CN2CCCC2)O1 (stereo not drawn) , what TGI is on record?
*A* > 100 µM

* * *

Catalogue of TGI values
- Tested on: 786-0 renal
- measurementDescription: NCI tumour cell line growth inhibition, 48 h

Example entries and their recorded answers appear below.
1) NCCOCC(N)C(=O)O (stereo not drawn): > 100 µM
2) C[N+](C)(C)CC1CCCC(C[N+](C)(C)C)C1O (stereo not drawn): > 100 µM

# evaluate next
*Q* If you can, please state the reported TGI value of `CC(=O)N(Cc1ccccc1)c1ccccc1I(=O)=O` .
*A* > 100 µM

* * *

- System: SNB-19 CNS
- measurementDescription: NCI tumour cell line growth inhibition, 48 h
Below, each entry is listed with its recorded TGI.

Examples with answers:
1) Cc1cc2c(c(=O)n1C)SCC2: > 100 µM
2) COc1cc2cc3c4c(cc(OC)c(OC)c4c2cc1OC)CCN3C(=O)CCC(=O)NCCCN(C)C: > 100 µM
3) Cc1cc([N+](=O)[O-])c(C)c(Br)c1C: > 100 µM
4) NCCC1CN(C(=O)OCc2ccccc2)c2ccccc21 (centres undefined): > 51.3 µM
5) O=C1CC(n2cccc2)c2c(Br)sc(Br)c21 (centres undefined): 28.1 µM
6) CC1COCC(C)N1C1=C(Cl)C(=O)c2ccccc2C1=O (centres undefined): 28.1 µM
7) O=C1c2ccccc2-c2[nH]c3cn[nH]c(=O)c3c21: > 100 µM
8) Cc1ccc(NC(=O)CC(=O)N2N=C(N(CCC#N)c3cccc(C)c3)CC2c2ccccc2)cc1 (centres undefined): > 100 µM

*Q* Please look up its TGI: `CC1=NN(C(=O)c2ccccc2O)C(=O)/C1=C/c1cccc([N+](=O)[O-])c1`
*A* > 100 µM

*Q* I'd like to know its TGI. The compound in question is `Cc1ccc(/C(O)=C/c2nc3ccc([N+](=O)[O-])cc3nc2/C=C(\O)c2ccc(C)cc2)cc1`
*A* > 77.1 µM

*Q* Any idea what its TGI is? The compound is CCOC(=O)C1COc2cc(-c3cc(=O)c4ccccc4o3)ccc2O1 (centres undefined)
*A* > 100 µM

*Q* Endpoint output: TGI of N#CC1C=Cc2ccccc2N1C(=O)Oc1ccccc1 (centres undefined) . Value?
*A* > 100 µM

*Q* Which measured TGI value corresponds to CCOC(=O)C1(C(F)(F)F)N=C(CC)OC(N2CCOCC2)=N1 (centres undefined) ?
*A* > 100 µM

*Q* Which TGI value belongs to C=C(C)[C@@H]1CC[C@]2(C(=O)O)CC[C@]3(C)[C@H](CCC4[C@@]5(C)CC[C@H](C(=O)/C=C/c6ccc(O)c(O)c6)C(C)(C)[C@@H]5CC[C@]43C)[C@@H]12 (some centres undefined) ?
*A* > 100 µM

* * *

- Tested on: DLD-1 colon
- measurementDescription: NCI tumour cell line growth inhibition, 48 h
# maps each entry to its TGI

1. Nc1ccc(S(=O)(=O)Nc2cnc3c(Cl)cccc3n2)cc1: > 655 µM
2. COc1ccccc1NC(=O)C(CC(C(=O)Nc1ccccc1OC)/C(C)=N/Nc1ccc([N+](=O)[O-])cc1[N+](=O)[O-])/C(C)=N/Nc1ccc([N+](=O)[O-])cc1[N+](=O)[O-] (stereo not drawn): > 100 µM

Shifting focus to the compound that follows.
*Q* Any idea what its TGI is? The compound is CCOC(=O)C1COc2cc(-c3cc(=O)c4ccccc4o3)ccc2O1 (stereo not drawn)
*A* > 100 µM

* * *

- Tested on: SK-MEL-5 melanoma
- measurementDescription: NCI tumour cell line growth inhibition, 48 h
Listed below: TGI values for each entry.

1. O=c1c2ccccc2oc2ccc(OCCCCCCN3CCCCCC3)cc12: 3.04 µM

*Q* What does the data say about its TGI? Entry: `COc1ccccc1CNCCCCCCCCCCCCN1C(=O)c2ccc3c4c(ccc(c24)C1=O)C(=O)N(CCCCCCCCCCCCNCc1ccccc1OC)C3=O`
*A* > 50 µM

*Q* Would you kindly share the measured TGI for COc1ccc(-c2cc(C(O)C3CCCCN3)c3ccccc3n2)cc1 (stereo unspecified) ?
*A* 17.2 µM

*Q* Fill blank: measured TGI of the molecule COc1ccc(C(O)CC(O)(C(F)(F)F)C(F)(F)F)cc1 (stereo unspecified) is ____.
*A* 36.2 µM

*Q* For `Nc1[nH]c(=O)ncc1CO` , what is its reported TGI?
*A* > 100 µM

*Q* Entry O=C(CC1Sc2ccccc2NC1=O)Nc1ccc(Cl)cc1 (stereo unspecified) : reported TGI = ?
*A* > 100 µM

* * *

Each item that follows carries a reported TGI.
- Test system: HCC-2998 colon
- measurementDescription: NCI tumour cell line growth inhibition, 48 h

// known answers, use as guide
1. Cc1cc(Cl)cc2c1NC(=O)C2=O (tested in a mixture with another compound): > 100 µM
2. O=c1cc(-c2ccccn2)[nH]c2ccc(Cl)cc12: > 100 µM
3. Cc1cc(Cl)ccc1NS(=O)(=O)c1ccc(-c2cnc(C3CC3)o2)cc1: 12 µM
4. CCOC(=O)C1CCCCN1CCc1c[nH]c2ccccc12 (centres undefined): > 100 µM
5. CN(C=O)/C=C/c1cc(O)ccc1O: > 100 µM
6. CN1C(=O)C(O)CC1c1cccc(C(F)(F)F)c1 (centres undefined): > 100 µM
7. CC1CCC2N(C1)CC1C3(O)CC45OC6(O)C(O)CCC4(C)C6CCC5C3(O)CC(O)C1(O)C2(C)O (centres undefined): > 100 µM
8. NCCOCC(N)C(=O)O (centres undefined): > 100 µM

Kindly consider the entry below.
*Q* Look at this compound and give its reported TGI. C=C(C)[C@@H]1CC[C@]2(C(=O)O)CC[C@]3(C)[C@H](CCC4[C@@]5(C)CC[C@H](C(=O)/C=C/c6ccc(O)c(O)c6)C(C)(C)[C@@H]5CC[C@]43C)[C@@H]12 (some centres undefined)
*A* 7 µM

* * *

- Test system: 786-0 renal
- measurementDescription: NCI tumour cell line growth inhibition, 48 h
experimentalReadout: TGI

1) O=C(c1ccc(Cl)cc1)C1OC12C(=O)Nc1ccccc12 (stereo not drawn): 26.9 µM

*Q* Query (molecule): `COc1ccc(CCN2CCc3c(C)c(C#N)c4nc5ccccc5n4c32)cc1OC` ; field requested: TGI
*A* > 100 µM

*Q* Please look up its TGI: `O=c1cc(-c2ccccn2)[nH]c2ccc(Cl)cc12`
*A* > 100 µM

* * *

- Test system: CCRF-CEM leukemia
- measurementDescription: NCI tumour cell line growth inhibition, 48 h
Overview of reported TGI across a group of compounds:
Dear colleague, please return just the value in µM, with no unit written.

Example results:
1) CN(C)c1ccc(/C=C2\N=C(c3ccccc3)N(c3ccc4c(c3)Sc3cc(N5C(=O)/C(=C/c6ccc(N(C)C)cc6)N=C5c5ccccc5)ccc3N4)C2=O)cc1: 20.1
2) O=C(/C=C/c1cccs1)c1ccccc1Cl: 33.9
3) CCOc1ccc(C(CN2CCOCC2)C(C)=O)cc1OC (centres undefined): 26.1
4) FC1OC2OC1C(OCc1ccccc1)C(OCc1ccccc1)C2OCc1ccccc1 (centres undefined): 75.8

*Q* Provide the documented TGI with CCRF-CEM leukemia as the system for CCC(CC(C)C)Nc1ccc(NC(CC)CC(C)C)cc1 (centres undefined)
*A* 27.8

*Q* Record lookup: for CCRF-CEM leukemia, what TGI belongs to `Cc1cc(Cl)ccc1NS(=O)(=O)c1ccc(-c2cnc(C3CC3)o2)cc1` ?
*A* 38.3

*Q* # query: TGI | item `CCOc1cc(-c2ccc[nH]2)[nH]c1/C=C1\N=C(C)C(C(=O)OC)=C1C` | system: CCRF-CEM leukemia
*A* 1.99

* * *

- Tested on: M14 melanoma
- measurementDescription: NCI tumour cell line growth inhibition, 48 h
experimentalReadout: TGI

# example entries with known answers
1. CC1(C)OC2C(COS(N)(=O)=O)SC(n3cnc4cncnc43)C2O1 (stereo unspecified): > 100 µM
2. Nc1ncnc2c1ncn2Cc1cccc(CCl)c1: 29.7 µM
3. CC(=O)OC1CC2C(=O)C(=O)C1(C)C2(C)C (stereo unspecified): > 100 µM
4. COc1ccc(CCN2CCc3c(C)c(C#N)c4nc5ccccc5n4c32)cc1OC: > 100 µM
5. CC(C)(C)OC(=O)n1cc(C2CN(O)C(=O)C23CCC(=O)N3Cc2ccccc2)c2ccccc21 (stereo unspecified): > 100 µM

Here's the next entry for you.
*Q* Need TGI, item `CCCCCCCCCCCCCc1nn[nH]n1`
*A* 31.5 µM

Where do these numbers come from? They come from PubChem BioAssay (NCI).
